- Protocol summary: rat microsomal stability (RLM)
- Reported conditions: microsomal stability half-life
Listed here: items and their measured Metab. Stabil. (m).

{"Molecule": "CC1=C(C(=O)NCc2cnn(C)c2C)C(c2ccc(C)cc2Cl)N=C(Nc2nc3ccc(F)cc3o2)N1 (centres unmarked)", "Metab. Stabil. (m)": "2.993 m"}
{"Molecule": "CC1=C(C(=O)Nc2cccc(F)c2)C(c2ccccc2Cl)N=C(Nc2nc3ccccc3o2)N1 (centres unmarked)", "Metab. Stabil. (m)": ">30 m"}
{"Molecule": "CC1=C(C(=O)Nc2ccc(CO)cc2)C(c2ccccc2Cl)N=C(Nc2nc3ccccc3o2)N1 (centres unmarked)", "Metab. Stabil. (m)": ">30 m"}
{"Molecule": "CC1=C(C(=O)Nc2cccc(Br)c2)C(c2ccccc2Cl)N=C(Nc2nc3ccccc3o2)N1 (centres unmarked)", "Metab. Stabil. (m)": ">30 m"}
{"Molecule": "CC1=C(C(=O)Nc2ccc(F)cc2)C(c2ccccc2Cl)N=C(Nc2nc3ccccc3o2)N1 (centres unmarked)", "Metab. Stabil. (m)": ">30 m"}
{"Molecule": "CC1=C(C(=O)Nc2ccc(Cl)cc2)C(c2ccccc2Cl)N=C(Nc2nc3ccccc3o2)N1 (centres unmarked)", "Metab. Stabil. (m)": ">30 m"}
{"Molecule": "CC1=C(C(=O)NCc2ccccc2Cl)C(c2ccccc2Cl)N=C(Nc2nc3ccccc3o2)N1 (centres unmarked)", "Metab. Stabil. (m)": "4.223 m"}
{"Molecule": "CC1=C(C(=O)NCc2nccn2C)C(c2ccccc2Cl)N=C(Nc2nc3ccccc3o2)N1 (centres unmarked)", "Metab. Stabil. (m)": "6.415 m"}

* * *

- Protocol summary: rat microsomal stability (RLM)
- Reported conditions: microsomal half-life
Parameter: Metab. Stabil. (m)

{"Compound": "CC1=C(C(=O)Nc2cc(C(=O)O)ccn2)C(c2ccccc2Cl)N=C(Nc2nc3cccc(F)c3o2)N1 (centres unmarked) [Compound 10]", "Parameter": "Metab. Stabil. (m)", "Recorded measurement": ">30 m"}
{"Compound": "CC1=C(C(=O)Nc2cc(N(C)C)ccn2)C(c2ccc(C)cc2Cl)N=C(Nc2nc3cccc(N)c3o2)N1 (centres unmarked) [Compound 89]", "Parameter": "Metab. Stabil. (m)", "Recorded measurement": "11.7017 m"}
{"Compound": "CC1=C(C(=O)NCc2cnn(C)c2)[C@H](c2ccc(C)cc2Cl)N=C(Nc2nc3cccc(N)c3o2)N1 [Compound 115]", "Parameter": "Metab. Stabil. (m)", "Recorded measurement": "18.91 m"}
{"Compound": "CC1=C(C(=O)NCc2c(C)nn(C)c2C)C(c2ccc(C)cc2Cl)N=C(Nc2nc3cccc(N)c3o2)N1 (centres unmarked) [Compound 113]", "Parameter": "Metab. Stabil. (m)", "Recorded measurement": "2.369 m"}
{"Compound": "CC1=C(C(=O)Nc2cc(C(=O)O)ccn2)C(c2ccc(C)cc2Cl)N=C(Nc2nc3cnccc3o2)N1 (centres unmarked) [Compound 106]", "Parameter": "Metab. Stabil. (m)", "Recorded measurement": ">30 m"}
{"Compound": "CC1=C(C(=O)Nc2nnc(-c3cccnc3)s2)C(c2ccccc2Cl)N=C(Nc2nc3ccc(F)cc3o2)N1 (centres unmarked) [Compound 100]", "Parameter": "Metab. Stabil. (m)", "Recorded measurement": ">30 m"}
{"Compound": "CC1=C(C(=O)Nc2cc(-c3nn[nH]n3)ccn2)C(c2ccccc2Cl)N=C(Nc2nc3ccc(F)cc3o2)N1 (centres unmarked) [Compound 41]", "Parameter": "Metab. Stabil. (m)", "Recorded measurement": ">30 m"}
{"Compound": "CC1=C(C(=O)NCc2cnn(Cc3ccccc3)c2)C(c2ccc(C)cc2Cl)N=C(Nc2nc3ccc(F)cc3o2)N1 (centres unmarked) [Compound 110]", "Parameter": "Metab. Stabil. (m)", "Recorded measurement": "2.74 m"}
{"Compound": "CC1=C(C(=O)Nc2cc(C(=O)O)ccn2)C(c2ccccc2Cl)N=C(Nc2nc3ccc(Cl)cc3o2)N1 (centres unmarked) [Compound 14]", "Parameter": "Metab. Stabil. (m)", "Recorded measurement": ">30 m"}
{"Compound": "CC1=C(C(=O)Nc2ccccn2)C(c2ccccc2Cl)N=C(Nc2nc3cccc(N)c3o2)N1 (centres unmarked) [Compound 81]", "Parameter": "Metab. Stabil. (m)", "Recorded measurement": ">30 m"}
{"Compound": "CC1=C(C(=O)NCc2cnn(C)c2)C(c2ccc(C)cc2Cl)N=C(Nc2nc3cccc(N)c3o2)N1 (racemic) [Compound 83]", "Parameter": "Metab. Stabil. (m)", "Recorded measurement": "14.13 m"}
{"Compound": "CC1=C(C(=O)Nc2cc(C(=O)O)ccn2)C(c2cc(C(=O)O)ccc2Cl)N=C(Nc2nc3ccc(F)cc3o2)N1 (centres unmarked) [Compound 73]", "Parameter": "Metab. Stabil. (m)", "Recorded measurement": ">30 m"}
{"Compound": "CC1=C(C(=O)Nc2cc(C(=O)O)ccn2)C(c2ccccc2Cl)N=C(Nc2nc3cccc([N+](=O)[O-])c3o2)N1 (centres unmarked) [Compound 23]", "Parameter": "Metab. Stabil. (m)", "Recorded measurement": ">30 m"}
{"Compound": "CC1=C(C(=O)Nc2cc(C(=O)O)ccn2)C(c2cccc(Cl)c2Cl)N=C(Nc2nc3ccc(F)cc3o2)N1 (centres unmarked) [Compound 49]", "Parameter": "Metab. Stabil. (m)", "Recorded measurement": ">30 m"}
